Where do the numbers come from? From patent US20250197372A1.

- tested on: rat maltase (partially purified alpha-glucosidase from intestinal rat powder)
- method: Intestinal alpha-glucosidase assay, maltose substrate (Glucose GO Kit)
Here, each record is paired with measured pIC50 data.
Interpret pIC50 as the negative base-10 log of the concentration measured in mol/L.

compound="O=[N+]([O-])c1cc(CN2CCCO2)ccc1NCCc1ccc(CCN2C[C@H](O)[C@@H](O)[C@H](O)[C@H]2CO)cc1 [Compound 1108]" parameter=pIC50 value_measured=7.01

Input Cc1cc(Br)cc(NCc2cccc(CN3C[C@H](O)[C@@H](O)[C@H](O)[C@H]3CO)c2)c1 [Compound 1021] . Output pIC50: 8.10

----------
- tested on: rat sucrase (partially purified alpha-glucosidase from intestinal rat powder) (Rattus norvegicus, UniProt P23739)
- Sequence (P23739 whole entry): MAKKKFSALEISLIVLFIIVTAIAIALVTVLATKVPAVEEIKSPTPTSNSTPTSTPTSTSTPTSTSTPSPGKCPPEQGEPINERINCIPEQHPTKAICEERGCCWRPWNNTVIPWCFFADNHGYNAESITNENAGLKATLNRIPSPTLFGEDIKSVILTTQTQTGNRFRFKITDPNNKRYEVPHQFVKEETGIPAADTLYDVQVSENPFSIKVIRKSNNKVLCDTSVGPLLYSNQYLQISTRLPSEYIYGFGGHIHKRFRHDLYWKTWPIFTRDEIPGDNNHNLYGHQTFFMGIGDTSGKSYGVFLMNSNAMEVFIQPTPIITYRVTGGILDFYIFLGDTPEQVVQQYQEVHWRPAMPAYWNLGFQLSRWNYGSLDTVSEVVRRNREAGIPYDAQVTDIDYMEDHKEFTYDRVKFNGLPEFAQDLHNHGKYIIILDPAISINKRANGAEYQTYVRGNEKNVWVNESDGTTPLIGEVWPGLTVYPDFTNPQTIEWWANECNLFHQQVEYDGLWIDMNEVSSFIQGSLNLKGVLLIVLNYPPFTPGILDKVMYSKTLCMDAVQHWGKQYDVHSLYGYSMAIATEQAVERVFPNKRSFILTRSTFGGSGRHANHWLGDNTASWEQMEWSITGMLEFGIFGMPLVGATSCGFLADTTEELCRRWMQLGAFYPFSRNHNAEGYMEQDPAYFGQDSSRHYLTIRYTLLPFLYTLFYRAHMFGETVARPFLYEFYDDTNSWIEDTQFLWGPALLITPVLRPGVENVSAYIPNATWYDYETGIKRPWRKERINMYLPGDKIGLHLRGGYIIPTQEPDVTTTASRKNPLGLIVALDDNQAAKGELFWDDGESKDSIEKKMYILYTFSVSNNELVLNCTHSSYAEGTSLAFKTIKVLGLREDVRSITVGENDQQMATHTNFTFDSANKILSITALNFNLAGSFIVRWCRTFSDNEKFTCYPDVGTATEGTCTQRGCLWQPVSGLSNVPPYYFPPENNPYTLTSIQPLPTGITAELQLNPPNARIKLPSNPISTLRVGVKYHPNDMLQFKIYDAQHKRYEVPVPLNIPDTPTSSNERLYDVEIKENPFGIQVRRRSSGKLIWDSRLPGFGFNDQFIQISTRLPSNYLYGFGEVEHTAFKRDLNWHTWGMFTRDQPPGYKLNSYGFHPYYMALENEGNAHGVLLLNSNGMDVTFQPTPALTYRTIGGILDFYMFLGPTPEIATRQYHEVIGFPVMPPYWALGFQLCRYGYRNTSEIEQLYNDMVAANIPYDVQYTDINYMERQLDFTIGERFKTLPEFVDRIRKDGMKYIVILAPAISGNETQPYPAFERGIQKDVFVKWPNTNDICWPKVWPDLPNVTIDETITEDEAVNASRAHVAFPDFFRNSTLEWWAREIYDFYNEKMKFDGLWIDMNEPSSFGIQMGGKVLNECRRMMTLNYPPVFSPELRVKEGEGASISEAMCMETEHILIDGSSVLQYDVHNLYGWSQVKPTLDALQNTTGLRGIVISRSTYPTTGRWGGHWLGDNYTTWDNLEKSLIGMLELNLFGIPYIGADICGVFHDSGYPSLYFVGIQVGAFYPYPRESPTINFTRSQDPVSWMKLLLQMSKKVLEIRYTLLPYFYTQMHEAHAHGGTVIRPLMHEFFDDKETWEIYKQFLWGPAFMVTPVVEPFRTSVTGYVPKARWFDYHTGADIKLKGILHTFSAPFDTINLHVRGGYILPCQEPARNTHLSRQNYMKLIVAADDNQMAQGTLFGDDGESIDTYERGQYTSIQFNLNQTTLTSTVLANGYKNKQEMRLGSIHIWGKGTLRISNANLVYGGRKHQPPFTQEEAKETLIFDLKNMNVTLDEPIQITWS
# Lookup of reported pIC50 keyed by entry
Expect pIC50 as a plain number equal to -log10 of the molar concentration.

molecule="COc1cc(Br)cc(NCCn2cc(CCN3C[C@H](O)[C@@H](O)[C@H](O)[C@H]3CO)c3ccccc32)c1 [Compound 1075]" parameter=pIC50 value_measured=6.14
molecule="[N-]=[N+]=Nc1ccc(NCCN2CC(OCCN3C[C@H](O)[C@@H](O)[C@H](O)[C@H]3CO)C2)c([N+](=O)[O-])c1 [Compound 1271]" parameter=pIC50 value_measured=6.58

Field: next molecule
// recorded pIC50 for Nc1ccc(NCCCCCCCCN2C[C@H](O)[C@@H](O)[C@H](O)[C@H]2CO)c([N+](=O)[O-])c1Cl [Compound 1277] : 6.88

----------
Recorded IC50 values for a group of compounds are listed next.
- tested on: rat sucrase (partially purified alpha-glucosidase from intestinal rat powder) (Rattus norvegicus, UniProt P23739)
Could you give me the number in nM? Just the number is fine.

compound="COc1ccc(-c2ccc(CCCN3C[C@H](O)[C@@H](O)[C@H](O)[C@H]3CO)cc2)cc1 [Compound 1305]" parameter=IC50 value_measured=1010
compound="[N-]=[N+]=Nc1ccc(NCCNS(=O)(=O)NCCN2C[C@H](O)[C@@H](O)[C@H](O)[C@H]2CO)c([N+](=O)[O-])c1 [Compound 1275]" parameter=IC50 value_measured=413
compound="COc1cc(-c2cnccn2)ccc1NCCCCCCN1C[C@H](O)[C@@H](O)[C@H](O)[C@H]1CO [Compound 1199]" parameter=IC50 value_measured=16

Now for another entry.
IC50 recorded for this compound, C[C@@H]1CN(c2ccc(NCc3ccc(CN4C[C@H](O)[C@@H](O)[C@H](O)[C@H]4CO)cc3)c([N+](=O)[O-])c2)C[C@H](C)O1 [Compound 1014] , is 15

----------
- tested on: recombinant human GBA (beta-glucocerebrosidase) (Homo sapiens, UniProt P04062)
- Sequence (P04062 40-536): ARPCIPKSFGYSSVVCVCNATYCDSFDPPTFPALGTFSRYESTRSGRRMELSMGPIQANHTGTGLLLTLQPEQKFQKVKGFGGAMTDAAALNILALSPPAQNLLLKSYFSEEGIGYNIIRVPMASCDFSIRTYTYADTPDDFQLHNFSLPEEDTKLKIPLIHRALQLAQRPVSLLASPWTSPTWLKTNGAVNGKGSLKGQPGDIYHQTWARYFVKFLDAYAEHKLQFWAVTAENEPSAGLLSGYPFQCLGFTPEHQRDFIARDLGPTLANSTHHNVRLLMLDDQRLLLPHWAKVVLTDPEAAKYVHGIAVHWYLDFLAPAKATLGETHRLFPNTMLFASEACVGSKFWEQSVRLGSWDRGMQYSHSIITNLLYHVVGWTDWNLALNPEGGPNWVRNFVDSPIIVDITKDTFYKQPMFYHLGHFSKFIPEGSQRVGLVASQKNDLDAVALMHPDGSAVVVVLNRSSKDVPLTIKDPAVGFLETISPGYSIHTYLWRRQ
- method: Beta-glucocerebrosidase (GBA, glucosylceramidase) assay (4-methylumbelliferyl-beta-D-pyranoside substrate, fluorescence)
parameter: pIC50
Please keep in mind that pIC50 is minus log10 of the molar concentration; only the number is needed.

Below: 2 compounds and their reported pIC50.
molecule=OC[C@@H]1[C@@H](O)[C@H](O)[C@@H](O)CN1CCCCCCNc1cc(Cl)cc(CN2CCCO2)c1 parameter=pIC50 value_measured=5.25
molecule=N#Cc1cc(-c2ncccn2)ccc1NCCCCCCN1C[C@H](O)[C@@H](O)[C@H](O)[C@H]1CO parameter=pIC50 value_measured=5.91

// next item, pIC50 requested
Lab note: COc1cc(-c2ncccn2)ccc1NCCCCCCN1C[C@H](O)[C@@H](O)[C@H](O)[C@H]1CO gave pIC50 of 5.68
